Hey, just so you know, these numbers are from patent US8614327B2.

- assayed_target: ΔF508-CFTR (Homo sapiens, UniProt P13569, DEL508-508)
- Sequence (P13569 with tags, fused parts or gaps DEL508-508): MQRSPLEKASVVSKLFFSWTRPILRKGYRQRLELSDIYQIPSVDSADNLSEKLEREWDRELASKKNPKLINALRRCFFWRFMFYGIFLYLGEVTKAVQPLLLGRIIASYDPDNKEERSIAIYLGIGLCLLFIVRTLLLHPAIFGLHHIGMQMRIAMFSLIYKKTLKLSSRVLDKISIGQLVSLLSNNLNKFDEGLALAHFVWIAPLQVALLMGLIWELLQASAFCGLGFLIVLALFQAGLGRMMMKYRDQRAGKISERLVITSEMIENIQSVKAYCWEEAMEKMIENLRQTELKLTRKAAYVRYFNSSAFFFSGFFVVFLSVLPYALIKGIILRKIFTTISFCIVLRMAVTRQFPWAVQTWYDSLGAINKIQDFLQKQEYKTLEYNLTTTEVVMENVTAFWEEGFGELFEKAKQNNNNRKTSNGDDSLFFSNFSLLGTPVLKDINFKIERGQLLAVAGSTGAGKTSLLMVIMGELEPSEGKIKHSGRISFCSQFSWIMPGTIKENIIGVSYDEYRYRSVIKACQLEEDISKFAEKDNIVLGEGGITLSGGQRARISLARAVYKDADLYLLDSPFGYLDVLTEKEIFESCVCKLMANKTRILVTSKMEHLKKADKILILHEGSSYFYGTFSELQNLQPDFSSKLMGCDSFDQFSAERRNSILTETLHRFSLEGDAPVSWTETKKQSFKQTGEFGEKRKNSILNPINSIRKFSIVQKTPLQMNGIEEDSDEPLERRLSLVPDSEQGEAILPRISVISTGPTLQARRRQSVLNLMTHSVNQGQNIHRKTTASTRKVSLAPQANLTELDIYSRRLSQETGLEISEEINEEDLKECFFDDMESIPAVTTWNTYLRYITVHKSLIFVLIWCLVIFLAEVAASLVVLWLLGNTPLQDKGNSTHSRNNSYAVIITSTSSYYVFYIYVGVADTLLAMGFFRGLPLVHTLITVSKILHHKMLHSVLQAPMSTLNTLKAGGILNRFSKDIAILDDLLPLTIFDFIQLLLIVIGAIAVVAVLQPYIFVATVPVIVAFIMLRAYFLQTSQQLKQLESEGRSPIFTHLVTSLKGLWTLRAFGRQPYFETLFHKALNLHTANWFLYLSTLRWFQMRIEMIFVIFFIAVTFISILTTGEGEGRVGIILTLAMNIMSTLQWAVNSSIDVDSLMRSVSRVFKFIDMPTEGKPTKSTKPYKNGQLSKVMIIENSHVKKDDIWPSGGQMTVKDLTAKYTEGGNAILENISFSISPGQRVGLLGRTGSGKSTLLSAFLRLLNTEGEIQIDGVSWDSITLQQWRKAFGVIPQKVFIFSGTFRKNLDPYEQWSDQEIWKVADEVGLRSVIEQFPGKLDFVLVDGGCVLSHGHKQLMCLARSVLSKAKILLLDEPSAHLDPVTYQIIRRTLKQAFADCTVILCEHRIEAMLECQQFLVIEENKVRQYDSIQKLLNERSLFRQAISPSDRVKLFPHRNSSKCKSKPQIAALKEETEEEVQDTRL
- assay_method_text: Membrane potential optical (FRET/VIPR) assay, identification of potentiator compounds
- settings: Table 3; assay not given
Measured EC50 values are reported for all entries that follow.

INSERT INTO assay_data (molecule, assayed_target, measurement_label, measured) VALUES
  ('O=C(Nc1ccc(OC(F)(F)F)cc1Cl)c1c[nH]c2ccccc2c1=O [Compound 628]', 'ΔF508-CFTR (Homo sapiens, UniProt P13569, DEL508-508)', 'EC50', '< 10 µM');

Fill in: EC50 of CCc1cc(C(C)(C)C)c(O)cc1NC(=O)c1c[nH]c2cccc(O)c2c1=O [Compound 507] is ___
< 10 µM

Entry under review: O=C(Nc1ccc2cc(C(F)(F)F)[nH]c2c1)c1c[nH]c2ccc(F)cc2c1=O [Compound 495] . Reported EC50?
< 10 µM

Any idea what EC50 was measured for CCCc1ccc(NC(=O)c2c[nH]c3ccccc3c2=O)cc1NC(=O)OCC [Compound 382] ?
< 10 µM

Tell me the measured EC50 of O=C(Nc1ccccc1-c1cccc(C(F)(F)F)c1)c1c[nH]c2ccccc2c1=O [Compound 278] , please.
< 10 µM

# query: EC50 of entry Cc1ccc2c(c1)c(=O)c(C(=O)Nc1ccccc1-c1ccccc1)cn2C [Compound 128]
25 to 60 µM

GET /values?readout=EC50&item= CC(C)Cc1ccc(-c2ccccc2NC(=O)c2c[nH]c3ccccc3c2=O)cc1 [Compound 391]
< 10 µM

Suppose we examine the molecule O=C(Nc1cc2[nH]ccc2cc1C(F)(F)F)c1c[nH]c2ccccc2c1=O [Compound 234] ; what EC50 value has been reported?
< 10 µM

Record request: EC50 value, item CN(C)CCNC(=O)c1ccc(-c2cc3cc[nH]c3cc2NC(=O)c2c[nH]c3ccccc3c2=O)cc1 [Compound 347]
10 to 25 µM

# lookup: EC50 of COc1ccc2[nH]cc(C(=O)Nc3ccc(N4CCC(C)(C)C4)cc3C(F)(F)F)c(=O)c2c1 [Compound 504]
< 10 µM

Recorded EC50 of Cc1ccccc1Oc1ccccc1NC(=O)c1c[nH]c2ccccc2c1=O [Compound 20] , please.
< 10 µM
